Tested on: MDA-MB-231
study_conditions: incubation time: 72 h; siRNA: siBRCA1
Listing of entries alongside the reported IC50 of cell viability.

COc1ccc(-c2ccc3c(N4CCOC[C@@H]4C)nc(N4CCOC[C@@H]4C)nc3n2)cc1CO: 0.0459 µM
CC1(C)CNc2cc(NC(=O)c3cccnc3NCc3ccncc3)ccc21: > 4.17 µM
CC/C(=C(\c1ccccc1)c1ccc(OCCN(C)C)cc1)c1ccccc1: > 4.17 µM
N[C@@H](Cc1ccc(N(CCCl)CCCl)cc1)C(=O)O: > 4.17 µM
N[C@@H](CSC(c1ccccc1)(c1ccccc1)c1ccccc1)C(=O)O: 0.929 µM

Query (compound): `C=CC[C@@H]1/C=C(\C)C[C@H](C)C[C@H](OC)[C@H]2O[C@@](O)(C(=O)C(=O)N3CCCC[C@H]3C(=O)O[C@H](/C(C)=C/[C@@H]3CC[C@@H](O)[C@H](OC)C3)[C@H](C)[C@@H](O)CC1=O)[C@H](C)C[C@@H]2OC` ; field requested: IC50 of cell viability
> 4.17 µM

Again, but for `CC(C)(C#N)c1cc(Cn2cncn2)cc(C(C)(C)C#N)c1`
> 4.17 µM

###

Overview of recorded IC50 of cell viability for various compounds
Test system: MDA-MB-231
study_conditions: incubation time: 72 h; siRNA: siBRCA1
Response body: numeric value in nM, unit text excluded.

Cn1c(=O)n(-c2ccc(C(C)(C)C#N)cc2)c2c3cc(-c4cnc5ccccc5c4)ccc3ncc21: 8.83
Cc1ccc(C(=O)Nc2ccc(CN3CCN(C)CC3)c(C(F)(F)F)c2)cc1C#Cc1cnc2cccnn12: 297
Cc1[nH]c2ccccc2c1CCNCc1ccc(/C=C/C(=O)NO)cc1: 31.7
Cc1cc(Nc2cc(CN3CCOCC3)c3nc(C)c(Cc4ccc(Cl)cc4F)n3n2)n[nH]1: 1380
C/C(=C\c1csc(C)n1)[C@@H]1C[C@@H]2O[C@]2(C)CCC[C@H](C)[C@H](O)[C@@H](C)C(=O)C(C)(C)[C@@H](O)CC(=O)N1 [Ixabepilone]: 249
CC(=O)[C@]1(O)Cc2c(O)c3c(c(O)c2[C@@H](O[C@H]2C[C@H](N)[C@H](O)[C@H](C)O2)C1)C(=O)c1ccccc1C3=O: 91.4
CC1(C)CCC(c2ccc(Cl)cc2)=C(CN2CCN(c3ccc(C(=O)NS(=O)(=O)c4ccc(N[C@H](CCN5CCOCC5)CSc5ccccc5)c(S(=O)(=O)C(F)(F)F)c4)cc3)CC2)C1: 835
COc1cc(Nc2ncc3c(n2)-c2ccc(Cl)cc2C(c2c(F)cccc2OC)=NC3)ccc1C(=O)O: 917
O=C(Nc1c[nH]nc1-c1nc2ccc(CN3CCOCC3)cc2[nH]1)NC1CC1: 267
CC[C@@]1(O)C(=O)OCc2c1cc1n(c2=O)Cc2cc3c(CN(C)C)c(O)ccc3nc2-1: 661

Entry COc1cc([C@@H]2c3cc4c(cc3[C@@H](O[C@@H]3O[C@@H]5CO[C@@H](c6cccs6)O[C@H]5[C@H](O)[C@H]3O)[C@H]3COC(=O)[C@H]23)OCO4)cc(OC)c1O [Teniposide] has what IC50 of cell viability?
2840

Could you do the same for `Cc1nc(Nc2ncc(C(=O)Nc3c(C)cccc3Cl)s2)cc(N2CCN(CCO)CC2)n1` , please?
11

Here is the next compound: `CO[C@H](C(=O)[C@@H](O)[C@@H](C)O)[C@@H]1Cc2cc3cc(O[C@H]4C[C@@H](O[C@@H]5C[C@@H](O)[C@H](O)[C@@H](C)O5)[C@H](O)[C@@H](C)O4)c(C)c(O)c3c(O)c2C(=O)[C@H]1O[C@H]1C[C@@H](O[C@@H]2C[C@@H](O)[C@@H](O[C@@H]3C[C@](C)(O)[C@H](O)[C@@H](C)O3)[C@@H](C)O2)[C@H](O)[C@@H](C)O1`
67.9

###

Tested on: MDA-MB-231
study_conditions: incubation time: 72 h; siRNA: siBRCA1
The compounds listed here are annotated with their IC50 of cell viability.
Form entry: value (nM) — number only.

These recorded examples may help you get a feel for the data.
CC(=O)O[C@H]1C(=O)[C@@]2(C)[C@H]([C@H](OC(=O)c3ccccc3)[C@]3(O)C[C@H](OC(=O)[C@H](O)[C@@H](NC(=O)c4ccccc4)c4ccccc4)C(C)=C1C3(C)C)[C@]1(OC(C)=O)CO[C@@H]1C[C@@H]2O: 6.6
COc1cccc2c1C(=O)c1c(O)c3c(c(O)c1C2=O)C[C@@](O)(C(C)=O)C[C@@H]3O[C@H]1C[C@H](N)[C@H](O)[C@H](C)O1: 159

Fill in the blank: the reported IC50 of cell viability of `C=CCn1c(=O)c2cnc(Nc3ccc(N4CCN(C)CC4)cc3)nc2n1-c1cccc(C(C)(C)O)n1` is ____.
348

Subsequent entry: `CC[C@@H]1C(=O)N(C)c2cnc(Nc3ccc(C(=O)NC4CCN(C)CC4)cc3OC)nc2N1C1CCCC1`
5.67

Okay, and `CC[C@@]1(O)C(=O)OCc2c1cc1n(c2=O)Cc2cc3ccccc3nc2-1` ?
45.6

###

# IC50 of cell viability values compiled below
Tested on: MDA-MB-231
study_conditions: incubation time: 72 h; siRNA: siBRCA1
Provide the reading as a plain figure in nM.

I am curious: what IC50 of cell viability value has been reported for `Cn1cncc1[C@@](N)(c1ccc(Cl)cc1)c1ccc2c(c1)c(-c1cccc(Cl)c1)cc(=O)n2C` ?
79.4

Follow-up entry: `COc1cc2/c(=N/c3ccc(Br)cc3F)nc[nH]c2cc1OCC1CCN(C)CC1`
1850

// repeat for `CC(=O)c1c(C)c2cnc(Nc3ccc(N4CCNCC4)cn3)nc2n(C2CCCC2)c1=O` and report
125

Also check `COc1ccc(-c2cc3c(C)nc(N)nc3n([C@H]3CC[C@H](OCCO)CC3)c2=O)cn1`
125

Can you check `CC[C@]1(O)C[C@@H]2CN(CCc3c([nH]c4ccccc34)[C@@](C(=O)OC)(c3cc4c(cc3OC)N(C)[C@H]3[C@@](O)(C(=O)OC)[C@H](OC(C)=O)[C@]5(CC)C=CCN6CC[C@]43[C@@H]65)C2)C1` next?
5.72

###

Test system: MDA-MB-231
study_conditions: incubation time: 72 h; siRNA: siBRCA1
Please note: IC50 of cell viability exactly at 200 nM is F. Only values below 200 nM get T.

As a guide, the following entries are already answered.
CC(=O)Nc1cccc(-n2c(=O)n(C3CC3)c(=O)c3c(Nc4ccc(I)cc4F)n(C)c(=O)c(C)c32)c1: T
O=C(c1ccc(OCCN2CCCCC2)cc1)c1c(-c2ccc(O)cc2)sc2cc(O)ccc12: F
CS(=O)(=O)CCNCc1ccc(-c2ccc3ncnc(Nc4ccc(OCc5cccc(F)c5)c(Cl)c4)c3c2)o1: F
C#Cc1cccc(Nc2ncnc3cc(OCCOC)c(OCCOC)cc23)c1: F

Hi there! Is IC50 of cell viability for `CCc1c2c(nc3ccc(OC(=O)N4CCC(N5CCCCC5)CC4)cc13)-c1cc3c(c(=O)n1C2)COC(=O)[C@]3(O)CC` below 200 nM, do you know?
F

Note, next up: COc1cc([C@@H]2c3cc4c(cc3[C@@H](O[C@@H]3O[C@@H]5CO[C@@H](C)O[C@H]5[C@H](O)[C@H]3O)[C@H]3COC(=O)[C@H]23)OCO4)cc(OC)c1O [Etoposide]
T

Try this compound next: `Clc1ccc(Nc2nnc(Cc3ccncc3)c3ccccc23)cc1`
F

Same thing, different compound: `C=C1C[C@@H]2[C@H](CC[C@]3(C)C(=O)CC[C@@H]23)[C@@]2(C)C=CC(=O)C=C12`
F

Thanks! And `NC(=O)Nc1cc(-c2cccc(F)c2)sc1C(=O)N[C@H]1CCCNC1` ?
F

Item: CN(C)CCN1C(=O)c2cccc3cc(N)cc(c23)C1=O [Amonafide]
F

Param item: `CN(C)C/C=C/C(=O)Nc1cc2c(Nc3ccc(F)c(Cl)c3)ncnc2cc1O[C@H]1CCOC1`
F

Please do the same for `c1ccc([C@H]2CN3CCSC3=N2)cc1` as well.
F

Likewise for CO[C@H]1C[C@@H]2CC[C@@H](C)[C@@](O)(O2)C(=O)C(=O)N2CCCC[C@H]2C(=O)O[C@H]([C@H](C)C[C@@H]2CC[C@@H](O)[C@H](OC)C2)CC(=O)[C@H](C)/C=C(\C)[C@@H](O)[C@@H](OC)C(=O)[C@H](C)C[C@H](C)/C=C/C=C/C=C/1C [Rapamycin (Sirolimus)] ?
T

Same read-out for `Nc1nc(Cl)nc2c1ncn2[C@@H]1O[C@H](CO)[C@@H](O)[C@@H]1F` ?
T

Quick one: `C[C@]12O[C@H](C[C@]1(O)CO)n1c3ccccc3c3c4c(c5c6ccccc6n2c5c31)CNC4=O`
F

// query: `CN(C)C[C@@H]1CCn2cc(c3ccccc32)C2=C(C(=O)NC2=O)c2cn(c3ccccc23)CCO1`
F

Same for `O=C(Nc1ccncc1)C(=O)c1cn(Cc2ccc(Cl)cc2)c2ccccc12`
F

What about this compound? `C[C@@H](Oc1cc(-c2cnn(C3CCNCC3)c2)cnc1N)c1c(Cl)ccc(F)c1Cl`
F

And the next one, `OC[C@H]1O[C@@H](n2cnc3c2N=CNC[C@H]3O)C[C@@H]1O` ?
F

How about this compound: `CN1CCN(c2nc(C3=C(c4c[nH]c5ccccc45)C(=O)NC3=O)c3ccccc3n2)CC1`
F
